Each item that follows carries a reported melting point.

For orientation, consider the following solved cases.
CN1C(=O)c2c(c3c4ccccc4[nH]c3c3[nH]c4ccccc4c23)C1=O: > 350 °C
N#Cc1ccccc1-c1ccc2[nH]c(Cc3ccccc3)nc2c1: 133 to 140 °C
CCc1nc2c(cnn2CC)c(NC2CCOCC2)c1CNC(=O)c1cccc(C(=O)NCc2ccc(Cl)c(-c3cccc(CN4CCCN(C)CC4)c3)c2)c1: 105 to 107 °C
CCCc1c2oc(C#N)cc(=O)c2cc2c(=O)cc(C(=O)OCC)oc12: 182 to 184 °C
C=CS(=O)(=O)CC(COCCCCCCCCCCCCCCCCCC)OC (stereo not given): 47 to 49 °C
OC(CCl)COc1cccc2sncc12 (stereo not given): 104 to 106 °C
Cn1cc(C(O)CO)c2c3c(c(-c4ccccc4Cl)cc21)C(=O)NC3=O (stereo not given): 179 to 183 °C
CCCn1nc(C(C)C)c(C(=O)OCOC(=O)C(C)(C)C)c1Cc1ccc(-c2ccccc2-c2nnn(C(c3ccccc3)(c3ccccc3)c3ccccc3)n2)cc1: 128 to 130 °C
COc1cc2c(Nc3ccc(Cl)cc3F)ncnc2cc1OCCN1C(=O)CCCC1=O: 202 to 203 °C
O=C1c2ccccc2-c2c1c1c(c(=O)n2CCCCNS(=O)(=O)c2ccccc2)C=CCC1: 184 to 186 °C

Value lookup for melting point; key = N#Cc1c(N2CCCC2)cc(-c2ccc(Cl)cc2)c2c1Cc1ccccc1-2
197 to 199 °C

What value of measured melting point is listed for Nc1ccc2c(c1N)CN(Cc1ccc(C(F)(F)F)cc1)CC2 ?
130 to 135 °C

Requested field: melting point. Item: Cc1c(C#N)sc2nc(CCCc3ccccc3)nc(N3CCN(C)CC3)c12
101 to 103 °C
